Can you tell me IC50 for the items I'm about to list?
Biological target: recombinant HPK1 protein (Homo sapiens, UniProt Q92918)
Construct: purchased Promega V6398
Sequence (Q92918 1-346 limits assumed): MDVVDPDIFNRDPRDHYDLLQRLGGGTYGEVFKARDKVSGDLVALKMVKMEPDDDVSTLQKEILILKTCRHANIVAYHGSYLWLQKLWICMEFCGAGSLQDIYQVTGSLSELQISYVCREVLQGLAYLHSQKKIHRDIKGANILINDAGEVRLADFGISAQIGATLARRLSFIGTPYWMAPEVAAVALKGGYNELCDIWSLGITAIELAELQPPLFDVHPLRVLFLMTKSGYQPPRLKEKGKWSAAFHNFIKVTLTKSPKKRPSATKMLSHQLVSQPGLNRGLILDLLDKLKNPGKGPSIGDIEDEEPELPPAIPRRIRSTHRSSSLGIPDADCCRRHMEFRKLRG
Assay: Primary assay of HPK1 enzymatic activity inhibition (ADP-Glo luminescence)
Type: biochemical
Conditions: recombinant HPK1, MBP substrate, 1 hour at room temperature

CCOC(=O)c1cnc(Nc2ccc(C(=O)N(C)C)c(Cl)c2)nc1N[C@H](CO)c1ccccc1
200 to 500 nM
CS(=O)(=O)c1ccc(Nc2ncc(C(=O)N3CCCC3)c(N[C@H](CO)c3ccccc3)n2)cc1F
≥ 500 nM
CCOC(=O)c1cnc(Nc2ccc(C(=O)N(C)C)cc2)nc1N[C@H](CO)c1ccccc1
50 to 200 nM
CCOC(=O)c1cnc(Nc2ccc(S(C)(=O)=O)cc2F)nc1N[C@H](CO)c1ccccc1
50 to 200 nM
CCOC(=O)c1cnc(Nc2ccc(C(F)(F)F)c(Cl)c2)nc1N[C@H](CO)c1ccccc1
≥ 500 nM
CCNC(=O)c1cnc(Nc2ccc(S(C)(=O)=O)c(C)c2)nc1N[C@H](CO)c1ccccc1
50 to 200 nM

Please report IC50 for every entry that follows.
1. CC(C)NC(=O)c1cnc(Nc2ccc(S(C)(=O)=O)c(F)c2)nc1N[C@H](CO)c1ccccc1
2. CCOC(=O)c1cnc(Nc2ccc3c(c2)CCC(=O)N3)nc1N[C@H](CO)c1ccccc1
3. CCOC(=O)c1cnc(Nc2ccc(S(C)(=O)=O)c(F)c2)nc1N[C@H](CO)c1ccccc1

1: 200 to 500 nM; 2: < 50 nM; 3: 200 to 500 nM
